B1: TPR t1 (parent)
chain: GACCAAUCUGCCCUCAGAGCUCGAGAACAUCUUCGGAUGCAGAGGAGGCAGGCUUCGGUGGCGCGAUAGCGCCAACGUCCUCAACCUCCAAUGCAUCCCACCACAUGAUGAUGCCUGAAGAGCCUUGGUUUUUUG

variants of: B1; experiment: polymerase ribozyme fitness, log enrichment relative to wild type (log ratio); higher = more active; in vitro selection for triplet polymerase activity
Response key: Met means polymerase ribozyme fitness (log ratio) >= -2; Not met means polymerase ribozyme fitness (log ratio) < -2.

// known answers, use as guide
query: Please indicate if the recorded polymerase ribozyme fitness (log ratio) for A24C G39A U55C C104A C124G meets or exceeds -2.
result: Not met

query: Please indicate if the recorded polymerase ribozyme fitness (log ratio) for U7A C8G A16C A46U C70A meets or exceeds -2.
result: Not met

***
query: Please indicate if the recorded polymerase ribozyme fitness (log ratio) for G48A G117U meets or exceeds -2.
result: Not met

query: Please indicate if the recorded polymerase ribozyme fitness (log ratio) for A66G G117C C124U U132A meets or exceeds -2.
result: Not met

query: Please indicate if the recorded polymerase ribozyme fitness (log ratio) for A26G C28G meets or exceeds -2.
result: Not met

query: Please indicate if the recorded polymerase ribozyme fitness (log ratio) for U21A A43U G60A C115U meets or exceeds -2.
result: Not met

query: Please indicate if the recorded polymerase ribozyme fitness (log ratio) for C4U C11A A50C C85U U112C meets or exceeds -2.
result: Met

query: Please indicate if the recorded polymerase ribozyme fitness (log ratio) for C11G U32C meets or exceeds -2.
result: Met

query: Please indicate if the recorded polymerase ribozyme fitness (log ratio) for G36U U38C C72A C115G A118U C124G U131C meets or exceeds -2.
result: Not met

query: Please indicate if the recorded polymerase ribozyme fitness (log ratio) for C49A A91C C97G C99U G113A meets or exceeds -2.
result: Not met

query: Please indicate if the recorded polymerase ribozyme fitness (log ratio) for C22U C56A meets or exceeds -2.
result: Not met

query: Please indicate if the recorded polymerase ribozyme fitness (log ratio) for G19C A41U C64G C98A U109A meets or exceeds -2.
result: Not met

query: Please indicate if the recorded polymerase ribozyme fitness (log ratio) for U14C U55C G117U U133G meets or exceeds -2.
result: Not met

query: Please indicate if the recorded polymerase ribozyme fitness (log ratio) for G69U C86G U96G C114A meets or exceeds -2.
result: Not met

query: Please indicate if the recorded polymerase ribozyme fitness (log ratio) for A29G G120U meets or exceeds -2.
result: Met

query: Please indicate if the recorded polymerase ribozyme fitness (log ratio) for C70U C82G meets or exceeds -2.
result: Met

query: Please indicate if the recorded polymerase ribozyme fitness (log ratio) for A18U G63A meets or exceeds -2.
result: Not met

query: Please indicate if the recorded polymerase ribozyme fitness (log ratio) for C11A C12A C22A C40U A46U U78C C114A meets or exceeds -2.
result: Not met

query: Please indicate if the recorded polymerase ribozyme fitness (log ratio) for A5U G52C G61C U129A meets or exceeds -2.
result: Not met

query: Please indicate if the recorded polymerase ribozyme fitness (log ratio) for C12U C53U C80G C82U A90G meets or exceeds -2.
result: Not met

query: Please indicate if the recorded polymerase ribozyme fitness (log ratio) for A5G A18G G44C G48C U55C U59G G69U G117U meets or exceeds -2.
result: Not met

query: Please indicate if the recorded polymerase ribozyme fitness (log ratio) for A91C U96A meets or exceeds -2.
result: Not met
